Attribute: IC50
# EXPERIMENTAL_SYSTEM: GST-tagged KRAS-G12V (2-169) (Homo sapiens, UniProt P01116, G12V)
# Sequence (P01116 2-169 isoform P01116-2 G12V): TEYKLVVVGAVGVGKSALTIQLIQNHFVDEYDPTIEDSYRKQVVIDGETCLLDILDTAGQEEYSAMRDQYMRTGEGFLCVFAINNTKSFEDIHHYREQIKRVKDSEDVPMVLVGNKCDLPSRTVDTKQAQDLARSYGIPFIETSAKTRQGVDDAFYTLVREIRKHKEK
# PROTOCOL_TEXT: Nucleotide exchange assay (NEA), SOS-mediated, HTRF, KRAS G12V
# CONDITION_NOTES: Table 4; IC50 extracted at 90 min; 80 nM SOS

Examples with answers:
- MOLECULE: "CC(c1cc(Cl)nnc1N)N(C)c1nc(OC[C@@]23CCCN2C[C@H](F)C3)nc(N2CC3(CCc4sc(N)c(C#N)c43)C2)n1 (stereo partly drawn)"
  RESULT: "< 10 nM"
- MOLECULE: "CCN(c1nc(OCC2(CN(C)C)CCCN2)nc(N2CC3(C2)SCc2sc(N)c(C#N)c23)n1)[C@H](C)c1cccnc1N (stereo partly drawn)"
  RESULT: "< 10 nM"
- MOLECULE: "C[C@@H]1[C@H](C#N)CCCN1c1nc(OC[C@@]23CCCN2C[C@H](F)C3)nc(N2CC3(CCc4sc(N)c(C#N)c43)C2)n1 (racemic)"
  RESULT: "100 to 1000 nM"
- MOLECULE: "N#Cc1c(N)sc2c1C1(CN(c3nc(OC[C@@]45CCCN4C[C@H](F)C5)nc(N4CCC5(CC4)COC5=O)n3)C1)SC2"
  RESULT: "100 to 1000 nM"
- MOLECULE: "N#Cc1c(N)sc2c1C1(CN(c3nc(OC[C@@]45CCCN4C[C@H](F)C5)nc(N4CCOCC(C#N)C4)n3)C1)SC2 (stereo partly drawn)"
  RESULT: "< 10 nM"

Field: next molecule
# input // returns reported IC50 for input "CCN(c1nc(OC[C@@]23CCCN2C[C@H](F)C3)nc(N2CC3(C2)SCc2sc(N)c(C#N)c23)n1)[C@H](C)C#N"
# output < 10 nM

These data points were gathered from patent US12421254B2.
